These measurements were taken from patent US20240409645A1.

# system: T1, cynomolgus monkey IL-2Rβ/CD122 subunit (cynomolgus monkey, UniProt Q38J85 27-239, limits assumed)
# T1 construct: also called Cyno IL-2R subunit
# T1 sequence (looked up): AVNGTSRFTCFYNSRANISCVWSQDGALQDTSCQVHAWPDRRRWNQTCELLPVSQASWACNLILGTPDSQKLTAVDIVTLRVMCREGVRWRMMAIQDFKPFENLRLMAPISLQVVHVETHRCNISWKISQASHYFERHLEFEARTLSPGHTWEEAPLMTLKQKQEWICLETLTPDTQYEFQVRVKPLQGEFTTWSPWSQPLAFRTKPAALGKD
# assay-summary: ELISA, bivalent; EC50 cyno vs human subunit
readout-kind: Fold change (fold)
Kindly answer with a numeric value in fold, unit omitted.

Check out these entries, answers already filled in.
184-MP02E11 VHH-hFc, monospecific bivalent (Fc fusion, IgG1 Fc LALA-PG; not shown: human IgG1 CH2 and CH3 domains (Fc)) QVQLQESGGGLVQAGGSLRLSCAASGRTFSNYVMAWFRQAPGKEREFVGAITQTGRGTFYADSVEGRFTISRINDKNTVYLQMNSLKPEDTAVYYCSAPRSGRAGTRNQMDYEYWGQGTQVTVSS: 1.3
26-MP06A07 VHH-hFc, monospecific bivalent (Fc fusion, IgG1 Fc LALA-PG; not shown: human IgG1 CH2 and CH3 domains (Fc)) QVQLQESGGGLVQAGGSLRLSCAASGDVFVRYTMAWFRQAPGKEREFVASVTDSGRTTEYVDSVKGRFTVSRDNAKNTAYLQMNNLKPEDTAIYYCAANTDYFQIRSLDLNTWGQGTQVTVSS: 1.2
297-MP06A08 VHH-hFc, monospecific bivalent (Fc fusion, IgG1 Fc LALA-PG; not shown: human IgG1 CH2 and CH3 domains (Fc)) EVQLVESGGGLVQAGESLRLSCAASGQYFSTYSMAWFRRTPGKEREFVTIISESGGIKEYVDSVKGRFTVSRDNAKNTVYLQMNSLKPEDTAVYYCAAARDWFARNEYQYDYWGQGTQVTVSS: 1.2
17-MP02C09 VHH-hFc, monospecific bivalent (Fc fusion, IgG1 Fc LALA-PG; also called anti-IL-2Rβ Ab 17; not shown: human IgG1 CH2 and CH3 domains (Fc)) QVQLQESGGGLVQAGGSLRLSCVASGSVSSINGMAWYRQGADNQRVLVAAISRVGNTAYGDSVKGRFTISRQNARNTVYLQMNSLKPEDTAVYYCNADSWGGDDYWGQGTQVTVSS: 1.5
189-MP02B12 VHH-hFc, monospecific bivalent (Fc fusion, IgG1 Fc LALA-PG; not shown: human IgG1 CH2 and CH3 domains (Fc)) QVQLVESGGGLVQAGGSLRLSCAASGRADSNAIMAWFRQAPGKEREFIVAVTYSGMPTYQDDSVQGRFTASRDNAKNTVYLQMNSLKPEDTAVYYCAARMYSASTYYGDYDYWGQGTQVTVSS: 1.3

Asked: Item 19-MP03F08 VHH-hFc, monospecific bivalent (Fc fusion, IgG1 Fc LALA-PG; not shown: human IgG1 CH2 and CH3 domains (Fc)) EVQLVESGGGLVQTGGSLRLSCAASGGTFSRDAMAWFRQVPGKEREFVALISWSGATTNYADSVKGRFAISRDNGKNTVYLQMNRLKPADTAIYYCAADRRPMGSRSYFEPTEYDDWGQGTQVTVSS has what recorded Fold change?
Given back: 0.8
